Biological target: T1, human Natriuretic Peptide Receptor 1 (hNPR1) (human, UniProt P16066 33-473, limits assumed)
T1 construct: pannings used NPR1-hFc; also called NPR1-hFc
T1 sequence: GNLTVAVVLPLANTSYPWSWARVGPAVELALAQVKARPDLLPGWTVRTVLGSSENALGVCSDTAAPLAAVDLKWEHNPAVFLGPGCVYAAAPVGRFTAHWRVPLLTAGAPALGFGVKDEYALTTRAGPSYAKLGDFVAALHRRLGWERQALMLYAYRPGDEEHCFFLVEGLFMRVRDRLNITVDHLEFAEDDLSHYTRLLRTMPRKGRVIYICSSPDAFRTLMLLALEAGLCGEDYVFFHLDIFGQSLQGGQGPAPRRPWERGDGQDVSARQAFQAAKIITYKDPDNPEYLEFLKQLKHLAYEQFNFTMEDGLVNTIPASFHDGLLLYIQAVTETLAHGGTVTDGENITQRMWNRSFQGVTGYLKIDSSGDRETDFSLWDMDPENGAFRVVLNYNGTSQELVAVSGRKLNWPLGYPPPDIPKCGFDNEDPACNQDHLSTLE
Experiment: SET, FabCys
measuredQuantity: pKd
To interpret pKd, take it as minus log10 of a concentration measured in moles per litre.

Reported pKd for XX01 (FabCys format) (Fab, V domains shown, Monovalent FabCys) VH: EVQLLESGGGLVQPGGSLRLSCAASGFTFNTHYIHWVRQAPGKGLEWVSSISSSGQSTYYADSVKGRFTISRDNSKNTLYLQMNSLRAEDTAVYYCARERGYVYYHMFDPWGQGTLVTVSS VL: DIVLTQSPATLSLSPGERATLSCRASQSITRNYLAWYQQKPGQAPRLLIYGASSRATGIPARFSGSGSGTDFTLTISSLEPEDFAVYYCQQHSMYPRTFGQGTKVEIK : what is it?
7.37

Source listed as patent US20240052042A1.
